Tested on: U2932 TK216-resistant clone 3
protocol-text: cell proliferation relative to vehicle (% of vehicle); higher = less growth inhibition
details: 50 nM; 72 h

compound	cell proliferation
CCN(c1cc(-c2ccc(CN3CCOCC3)cc2)cc(C(=O)NCc2c(C)cc(C)[nH]c2=O)c1C)C1CCOCC1	96.4
C=CC(=O)N1C/C(=C\c2ccc([N+](=O)[O-])cc2)C(=O)/C(=C/c2ccc([N+](=O)[O-])cc2)C1	30.7
O=C(O)c1ccc(-c2c[nH]c3ncc(-c4ccccc4)cc23)cc1C1CCCC1	97.4
Cc1nc(C(=O)NCC(=O)O)c(O)c2ccc(Oc3ccccc3)cc12	104
CO[C@H]1C[C@@H]2CC[C@@H](C)[C@@](O)(O2)C(=O)C(=O)N2CCCC[C@H]2C(=O)O[C@H]([C@H](C)C[C@@H]2CC[C@@H](OP(C)(C)=O)[C@H](OC)C2)CC(=O)[C@H](C)/C=C(\C)[C@@H](O)[C@@H](OC)C(=O)[C@H](C)C[C@H](C)/C=C/C=C/C=C/1C	62.2
O=C(O)C1(C(=O)O)CCC1.[NH2-].[NH2-].[Pt+2]	90.2
Nc1nc(F)nc2c1ncn2[C@@H]1O[C@H](CO)[C@@H](O)[C@@H]1O	103
N#CC[C@H](C1CCCC1)n1cc(-c2ncnc3[nH]ccc23)cn1	103
CC(C)C(=O)Nc1ccc([N+](=O)[O-])c(C(F)(F)F)c1 [Flutamide]	97.2
COc1ccc(C2=N[C@@H](c3ccc(Cl)cc3)[C@@H](c3ccc(Cl)cc3)N2C(=O)N2CCNC(=O)C2)c(OC(C)C)c1 [Nutlin-3]	109
NC(=O)NO [Hydroxyurea]	102
Cc1c(CN2CCN(C(=O)[C@H](C)O)CC2)sc2c(N3CCOCC3)nc(-c3cnc(N)nc3)nc12	82.1
CCn1c(-c2nonc2N)nc2c(C#CC(C)(C)O)ncc(OC[C@H]3CCCNC3)c21	97
C[C@]12CC[C@@H]3c4ccc(O)cc4C[C@@H](CCCCCCCCC[S+]([O-])CCCC(F)(F)C(F)(F)F)[C@H]3[C@@H]1CC[C@@H]2O (stereo partly specified)	103
OCCn1cc(-c2cnc3nnn(Cc4ccc5ncccc5c4)c3n2)cn1	105
COc1ccc(-n2c(SCCCN3C(=O)c4cccc5cccc(c45)C3=O)nnc2-c2ccncc2)cc1	104
